# testedSystem: TLS (UniProt P35637 1-526)
# Sequence (P35637 whole entry): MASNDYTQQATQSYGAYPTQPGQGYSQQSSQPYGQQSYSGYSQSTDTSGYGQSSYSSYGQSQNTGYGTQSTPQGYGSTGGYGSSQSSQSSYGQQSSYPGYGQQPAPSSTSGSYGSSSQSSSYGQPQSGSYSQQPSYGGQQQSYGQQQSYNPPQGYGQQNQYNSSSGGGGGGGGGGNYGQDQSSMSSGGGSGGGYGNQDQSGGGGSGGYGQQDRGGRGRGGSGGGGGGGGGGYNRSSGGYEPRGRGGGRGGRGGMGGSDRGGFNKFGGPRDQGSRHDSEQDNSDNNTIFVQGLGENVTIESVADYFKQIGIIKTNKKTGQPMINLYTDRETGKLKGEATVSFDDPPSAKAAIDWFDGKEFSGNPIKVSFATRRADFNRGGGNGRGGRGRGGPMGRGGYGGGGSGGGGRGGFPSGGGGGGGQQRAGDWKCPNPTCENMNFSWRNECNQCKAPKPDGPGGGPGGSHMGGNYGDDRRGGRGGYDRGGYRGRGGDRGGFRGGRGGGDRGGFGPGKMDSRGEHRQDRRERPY
# assayRemarks: EMSA
readout: binding result

binder: UCUGCCGGCUUGGAUAUGGGGUGUC (ssRNA) [-454s (RNA in Fig. 4g)]
valueMeasured: binds

binder: UUGUAUUUUGAGCUAGUUUGGUGAC (ssRNA) [GGUG-oligonucleotide]
valueMeasured: binds
